Origin of values: patent US20230279002A1

Test: Solubility in SGF, FaSSIF, FeSSIF, 0.1M HCl, pH 4.5 and pH 6.8 aqueous at 25° C. (HPLC)
Type: physicochemical
Details: pH 6.8 phosphate buffer (USP), 25 °C, pH 6.8, aqueous buffer, thermodynamic from solid, pH 6.8 Phosphate Buffer (USP); solubility of salts transformed to freebase; read-out: Solubility conc.(mg/ml)
recorded-metric: solubility

1) COc1ccc2c(c1)CCN1Cc3c(ccc(OC)c3OS(=O)(=O)c3cccc(F)c3)C[C@@H]21 [Compound 2b] = 0.008 mg/mL

* * *

Assay: physchem
Conditions: 25 °C, simulated gastric fluid, thermodynamic from solid, Solubility (mg/mL)
recorded-metric: solubility at 24 h (µg/mL)

1. COc1ccc2c(c1)CCN1Cc3c(ccc(OC)c3OS(=O)(=O)c3cccc(F)c3)C[C@H]21 [tosylate] = 399

* * *

Experiment: TGA (Thermal Gravimetric Analysis) weight loss
Type: physicochemical
Settings: from RT to 120° C.
Where a name gives a salt, the structure may show the parent alone.
Outcome: Criterion met for TGA weight loss (from RT to 120° C.) of at least 0.2%; Criterion not met for anything lower.

1) COc1ccc2c(c1)CCN1Cc3c(ccc(OC)c3OS(=O)(=O)c3cccc(F)c3)C[C@H]21 [besylate] = Criterion met
2) COc1ccc2c(c1)CCN1Cc3c(ccc(OC)c3OS(=O)(=O)c3cccc(F)c3)C[C@H]21 [maleate] = Criterion met
3) COc1ccc2c(c1)CCN1Cc3c(ccc(OC)c3OS(=O)(=O)c3cccc(F)c3)C[C@H]21 [tosylate] = Criterion met
4) COc1ccc2c(c1)CCN1Cc3c(ccc(OC)c3OS(=O)(=O)c3cccc(F)c3)C[C@H]21 [sulfate] = Criterion not met
5) COc1ccc2c(c1)CCN1Cc3c(ccc(OC)c3OS(=O)(=O)c3cccc(F)c3)C[C@H]21 [hydrobromide salt] = Criterion met

* * *

Test: Solubility in SGF, FaSSIF, FeSSIF, 0.1M HCl, pH 4.5 and pH 6.8 aqueous at 25° C. (HPLC)
Type: physicochemical
Conditions: FeSSIF (Simulated Small Intestinal Fluid, fed state), 25 °C, fessif, thermodynamic from solid, FeSSIF; solubility of salts transformed to freebase; read-out: Solubility conc.(mg/ml)
recorded-metric: solubility

1. COc1ccc2c(c1)CCN1Cc3c(ccc(OC)c3OS(=O)(=O)c3cccc(F)c3)C[C@@H]21 = 0.011 mg/mL

* * *

Test: Solubility in SGF, FaSSIF, FeSSIF, 0.1M HCl, pH 4.5 and pH 6.8 aqueous at 25° C. (HPLC)
Format: physicochemical
Conditions: pH 4.5 acetate buffer (USP), 25 °C, pH 4.5, aqueous buffer, thermodynamic from solid, pH 4.5 Acetate Buffer (USP); solubility of salts transformed to freebase; read-out: Solubility conc.(mg/ml)
recorded-metric: solubility (mg/mL)

1) COc1ccc2c(c1)CCN1Cc3c(ccc(OC)c3OS(=O)(=O)c3cccc(F)c3)C[C@@H]21 [Compound 2b] = 0.01

* * *

Experiment: Apparent solubility in organic solvents (visual)
Assay type: physicochemical
Conditions: acetonitrile, organic solvent or mixture, thermodynamic from solid, ACN
recorded-metric: solubility

1. COc1ccc2c(c1)CCN1Cc3c(ccc(OC)c3OS(=O)(=O)c3cccc(F)c3)C[C@H]21 = 6.17 to 18.5 mg/mL

* * *

Assay: Solubility of salts in water, SGF and FaSSIF at 25° C. for 24 hours (HPLC)
Conditions: FaSSIF, 25 °C, fassif, thermodynamic from solid, Solubility (mg/mL), Medium: FaSSIF; 25° C., stirred 24 hours; HPLC
recorded-metric: solubility at 24 h (µg/mL)

1) COc1ccc2c(c1)CCN1Cc3c(ccc(OC)c3OS(=O)(=O)c3cccc(F)c3)C[C@H]21 [sulfate] = 2

* * *

Assay: Apparent solubility in organic solvents (visual)
Format: physicochemical
Details: EtOH, organic solvent or mixture, thermodynamic from solid
recorded-metric: solubility

1. COc1ccc2c(c1)CCN1Cc3c(ccc(OC)c3OS(=O)(=O)c3cccc(F)c3)C[C@H]21 [Compound 2a] = 2100 to 3150 µg/mL

* * *

Test: Apparent solubility in organic solvents (visual)
Format: physicochemical
Conditions: THF, organic solvent or mixture, thermodynamic from solid
recorded-metric: solubility

1) COc1ccc2c(c1)CCN1Cc3c(ccc(OC)c3OS(=O)(=O)c3cccc(F)c3)C[C@H]21 [Compound 2a] = < 1140 µg/mL

* * *

Experiment: Apparent solubility in organic solvents (visual)
Format: physicochemical
Conditions: methanol, organic solvent or mixture, thermodynamic from solid, MeOH
recorded-metric: solubility

1) COc1ccc2c(c1)CCN1Cc3c(ccc(OC)c3OS(=O)(=O)c3cccc(F)c3)C[C@H]21 = > 17 mg/mL

* * *

Catalogue of compounds with associated solubility
Experiment: Solubility of salts in water, SGF and FaSSIF at 25° C. for 24 hours (HPLC)
Settings: Medium: SGF; 25° C., stirred 24 hours; HPLC
Counter-ions that a name gives are not always drawn.
recorded-metric: solubility (µg/mL)

1) COc1ccc2c(c1)CCN1Cc3c(ccc(OC)c3OS(=O)(=O)c3cccc(F)c3)C[C@H]21 [hydrobromide salt] = 156
2) COc1ccc2c(c1)CCN1Cc3c(ccc(OC)c3OS(=O)(=O)c3cccc(F)c3)C[C@H]21 [sulfate] = 496
3) COc1ccc2c(c1)CCN1Cc3c(ccc(OC)c3OS(=O)(=O)c3cccc(F)c3)C[C@H]21 [maleate] = 221
4) COc1ccc2c(c1)CCN1Cc3c(ccc(OC)c3OS(=O)(=O)c3cccc(F)c3)C[C@H]21 [besylate] = 214

* * *

Assay: Solubility of salts in water, SGF and FaSSIF at 25° C. for 24 hours (HPLC)
Conditions: Medium: Water; 25° C., stirred 24 hours; HPLC
Structures can show the parent of a compound that is named as a salt.
recorded-metric: solubility (µg/mL)

1) COc1ccc2c(c1)CCN1Cc3c(ccc(OC)c3OS(=O)(=O)c3cccc(F)c3)C[C@H]21 [sulfate] = 1370
2) COc1ccc2c(c1)CCN1Cc3c(ccc(OC)c3OS(=O)(=O)c3cccc(F)c3)C[C@H]21 [besylate] = 110
3) COc1ccc2c(c1)CCN1Cc3c(ccc(OC)c3OS(=O)(=O)c3cccc(F)c3)C[C@H]21 [hydrobromide salt] = 163
4) COc1ccc2c(c1)CCN1Cc3c(ccc(OC)c3OS(=O)(=O)c3cccc(F)c3)C[C@H]21 [maleate] = 86

* * *

Assay: physchem
Details: 25 °C, water, thermodynamic from solid, Solubility (mg/mL)
recorded-metric: solubility at 24 h

1) COc1ccc2c(c1)CCN1Cc3c(ccc(OC)c3OS(=O)(=O)c3cccc(F)c3)C[C@H]21 [tosylate] = 411 µg/mL

* * *

Assay: Apparent solubility in organic solvents (visual)
Format: physicochemical
Conditions: heptane, organic solvent or mixture, thermodynamic from solid
recorded-metric: solubility

1. COc1ccc2c(c1)CCN1Cc3c(ccc(OC)c3OS(=O)(=O)c3cccc(F)c3)C[C@H]21 = < 1430 µg/mL

* * *

Assay: Solid stability at 40° C./0% RH (closed) and 40° C./75% RH (open), HPLC
Format: physicochemical
Conditions: solid, 40° C. (0% RH, closed), 0 day
Catalogue of molecules with associated 0 day % remaining
recorded-metric: 0 day % remaining (%)

1. COc1ccc2c(c1)CCN1Cc3c(ccc(OC)c3OS(=O)(=O)c3cccc(F)c3)C[C@@H]21 [Compound 2b] = 100.0
2. COc1ccc2c(c1)CCN1Cc3c(ccc(OC)c3OS(=O)(=O)c3cccc(F)c3)C[C@H]21 [Compound 2a] = 99.65
3. COc1ccc2c(c1)CCN1Cc3c(ccc(OC)c3OS(=O)(=O)c3cccc(F)c3)C[C@H]21 [Compound 1a] = 99.65
4. COc1ccc2c(c1)CCN1Cc3c(ccc(OC)c3OS(=O)(=O)c3cccc(F)c3)C[C@@H]21 [Compound 3b] = 100.0

* * *

Assay: Apparent solubility in organic solvents (visual)
Format: physicochemical
Settings: ethyl acetate, organic solvent or mixture, thermodynamic from solid
Method: Solubility: 2a substance was equilibrated with organic solvents to visually test the apparent solubility. The experiment was terminated once or if the target of 20 mg/mL was achieved.
recorded-metric: solubility

1) COc1ccc2c(c1)CCN1Cc3c(ccc(OC)c3OS(=O)(=O)c3cccc(F)c3)C[C@H]21 = < 1800 µg/mL

* * *

Assay: Apparent solubility in organic solvents (visual)
Assay type: physicochemical
Conditions: 50% EtOH (aq), aqueous with cosolvent or surfactant or cyclodextrin, thermodynamic from solid
Method: Solubility: 2a substance was equilibrated with organic solvents to visually test the apparent solubility. The experiment was terminated once or if the target of 20 mg/mL was achieved.
recorded-metric: solubility

1. COc1ccc2c(c1)CCN1Cc3c(ccc(OC)c3OS(=O)(=O)c3cccc(F)c3)C[C@H]21 [Compound 2a] = < 990 µg/mL

* * *

Assay: Solid stability at 40° C./0% RH (closed) and 40° C./75% RH (open), HPLC
Assay type: physicochemical
Conditions: solid, 40° C./75% RH (open), 0 day
recorded-metric: 0 day % remaining (%)

1) COc1ccc2c(c1)CCN1Cc3c(ccc(OC)c3OS(=O)(=O)c3cccc(F)c3)C[C@H]21 [Compound 1a] = 99.65
2) COc1ccc2c(c1)CCN1Cc3c(ccc(OC)c3OS(=O)(=O)c3cccc(F)c3)C[C@H]21 [Compound 2a] = 99.65
3) COc1ccc2c(c1)CCN1Cc3c(ccc(OC)c3OS(=O)(=O)c3cccc(F)c3)C[C@@H]21 [Compound 3b] = 100.0
4) COc1ccc2c(c1)CCN1Cc3c(ccc(OC)c3OS(=O)(=O)c3cccc(F)c3)C[C@@H]21 [Compound 2b] = 100.0
